System under test: MST1 (Homo sapiens, UniProt Q13043)
Sequence (Q13043 whole entry): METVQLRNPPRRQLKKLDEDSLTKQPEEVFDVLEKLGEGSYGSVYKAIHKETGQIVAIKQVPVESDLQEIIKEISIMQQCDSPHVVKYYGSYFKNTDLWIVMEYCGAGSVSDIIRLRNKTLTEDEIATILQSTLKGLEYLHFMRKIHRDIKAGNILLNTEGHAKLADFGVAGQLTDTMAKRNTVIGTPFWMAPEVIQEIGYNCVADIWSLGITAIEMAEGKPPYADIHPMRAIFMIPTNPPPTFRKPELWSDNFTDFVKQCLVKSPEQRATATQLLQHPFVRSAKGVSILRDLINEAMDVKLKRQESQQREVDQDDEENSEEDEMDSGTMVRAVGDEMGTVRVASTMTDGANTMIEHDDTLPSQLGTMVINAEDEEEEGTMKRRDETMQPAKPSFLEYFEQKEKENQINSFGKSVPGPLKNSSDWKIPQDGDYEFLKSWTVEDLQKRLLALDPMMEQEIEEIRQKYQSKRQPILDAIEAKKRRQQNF
Test name: In vitro measurement of MST1 inhibition (Z′-Lyte kinase assay)
Type: biochemical
Recorded conditions: 50 μM ATP; read-out: IC50 (μM) 50 μM ATP
Metric name: IC50

{"columns": ["Smiles data", "Recorded value"],
 "data": [
  ["CN(C1CC1)S(=O)(=O)c1ccc(-c2cnc(N)c(-c3ccc4c(c3)CCNC4=O)n2)cc1F", "< 0.01 µM"],
  ["N#CC1(c2ccc(-c3cnc(N)c(-c4ccc5c(c4)CCCNC5=O)n3)cc2)CCOCC1", "< 0.01 µM"],
  ["CN(C)C(C)(C)c1ccc(-c2cnc(N)c(-c3ccc4c(c3)CCNC4=O)c2)cc1", "< 0.01 µM"],
  ["CC1(C)CNC(=O)c2ccc(-c3nc(-c4ccc(S(=O)(=O)NC5CC5)cc4)cnc3N)cc21", "< 0.01 µM"],
  ["NC(=O)c1ccc(-c2cc(-c3ccc(S(N)(=O)=O)cc3)cnc2N)cc1", "< 0.15 µM"],
  ["CCN(C)S(=O)(=O)c1cnc(-c2cnc(N)c(-c3ccc4c(c3)CCNC4=O)n2)cc1C", "< 0.01 µM"],
  ["CCOc1cc(-c2cc(-c3ccc(F)cc3)cnc2N)ccc1C(N)=O", "< 0.15 µM"],
  ["CCNS(=O)(=O)c1ccc(-c2cnc(N)c(-c3ccc4c(c3)CCC/C4=N\\O)c2)cc1", "< 0.01 µM"],
  ["CN(C1CC1)S(=O)(=O)c1ccc(-c2cnc(N)c(-c3ccc4c(c3)CCCNC4=O)n2)cc1", "< 0.01 µM"]
]}
